# Method Summary: Pharmacokinetic / bioavailability study after single oral administration, plasma LC-MS/MS
# Assay type: in vivo, Sprague-Dawley rats
# Recorded Conditions: male, Sprague-Dawley, rat, plasma, rats, 100 mg/kg, mean ± SD, n = 6
# Excerpt: The animal studies carried out in this study strictly followed the instructions of the Animal Care and Use Committee of the Changchun university of Chinese medicine (Approval Number: 20190030). […] Furthermore, with the help of linear trapezoidal approximation, it was easy to calculate the area below the plasma concentration-time curve increasing from 0 to the time of the last quantifiable concentration (AUCt). […]

{"Compound": "CC(C)=CCC[C@](C)(O[C@@H]1O[C@H](CO)[C@@H](O)[C@H](O)[C@H]1O)[C@H]1CC[C@]2(C)[C@@H]1[C@H](O)C[C@@H]1[C@@]3(C)CC[C@H](O)C(C)(C)[C@@H]3[C@@H](O[C@@H]3O[C@H](CO)[C@@H](O)[C@H](O)[C@H]3O[C@@H]3O[C@@H](C)[C@H](O)[C@@H](O)[C@H]3O)C[C@]12C [G-Re, Ginsenoside Re]", "tmax [h]": 1.02}
